Entry source: ChEMBL document CHEMBL2429768

System: Klebsiella pneumoniae
protocol_summary: Antibacterial activity against Klebsiella pneumoniae at 100 ug/ml after 24 hrs by agar well diffusion method
Format: functional
conditions: read-out: DIZ
measurement_label: zone of inhibition at 100 µg/mL (mm)
Give bare numbers, in mm.

These recorded examples may help you get a feel for the data.
smiles_data=Cn1cc(C=C2C(=O)OC(C)(C)OC2=O)c2cc([N+](=O)[O-])ccc21 meas_value=14
smiles_data=CCn1cc(C=C2C(=O)OC(C)(C)OC2=O)c2cc([N+](=O)[O-])ccc21 meas_value=14

For the 2 compounds below, give their zone of inhibition at 100 µg/mL values.
1. COc1ccc2[nH]cc(C=C3C(=O)OC(C)(C)OC3=O)c2c1
2. CN[C@@H]1[C@H](O[C@H]2[C@H](O[C@H]3[C@H](O)[C@@H](O)[C@H](N=C(N)N)[C@@H](O)[C@@H]3N=C(N)N)O[C@@H](C)[C@]2(O)C=O)O[C@@H](CO)[C@H](O)[C@H]1O

Reply:
16
18
